Molecular target: Human immunodeficiency virus type 1 reverse transcriptase (Human immunodeficiency virus 1)
Assay: Compound ability to inhibit the production of HIV reverse transcriptase (RT) in culture supernatant of CEM-CL13 on at 26 days at a concentration 1 uM
Assay type: functional
quantity_name: Activity (c.p.m. 50ul-1)
// no unit string in output, number only

Cc1cn([C@H]2C[C@H](N=[N+]=[N-])[C@@H](CO)O2)c(=O)[nH]c1=O
12000
CCCCCCCCCCCCCCCCOP(=O)(OCCO[C@H]1O[C@H](CO)[C@@H](O)[C@H](O)[C@@H]1O)OCC1OC(n2cc(C)c(=O)[nH]c2=O)CC1N=[N+]=[N-] (some centres undefined)
64000
CCCCCCCCCCCCCCCCOP(=O)(OC[C@H]1OC(O)[C@@H](O)[C@@H](O)[C@@H]1O)OC[C@H]1OC(n2cc(C)c(=O)[nH]c2=O)C[C@@H]1N=[N+]=[N-] (some centres undefined)
20000

Then this compound:
Challenge: I would be grateful if you could share the reported Activity (c.p.m. 50ul-1) for CCCCCCCCCCCCCCCCOP(=O)(OC[C@H]1OC(O)[C@H](O)[C@@H](O)[C@@H]1O)OC[C@H]1OC(n2cc(C)c(=O)[nH]c2=O)C[C@@H]1N=[N+]=[N-] (some centres undefined) .
Response given: 72000

----------
Target: Human immunodeficiency virus type 1 reverse transcriptase (Human immunodeficiency virus 1)
Test: Percent inhibition measured as the production of HIV reverse transcriptase (RT) in culture supernatant of monocytic U937 on at 7 days at a concentration 1 uM
Type: functional
# Lookup of reported inhibition keyed by entry
Respond numerically; units are % and should not be typed.

Cc1cn([C@H]2C[C@H](N=[N+]=[N-])[C@@H](CO)O2)c(=O)[nH]c1=O
85
Cc1cn([C@H]2C[C@H](N=[N+]=[N-])[C@@H](COP(=O)(O)OC[C@H]3OC(O)[C@@H](O)[C@@H](O)[C@@H]3O)O2)c(=O)[nH]c1=O (some centres not stated)
0
CCCCCCCCCCCCCCCCOP(=O)(OCCO[C@H]1O[C@H](CO)[C@@H](O)[C@H](O)[C@@H]1O)OCC1OC(n2cc(C)c(=O)[nH]c2=O)CC1N=[N+]=[N-] (some centres not stated)
0

Challenge: I would be grateful if you could share the reported inhibition for Cc1cn([C@H]2C[C@H](N=[N+]=[N-])[C@@H](COP(=O)(O)OCCO[C@H]3O[C@H](CO)[C@@H](O)[C@H](O)[C@@H]3O)O2)c(=O)[nH]c1=O .
Response given: 0

Challenge: I would be grateful if you could share the reported inhibition for CCCCCCCCCCCCCCCCOP(=O)(OC[C@H]1OC(O)[C@H](O)[C@@H](O)[C@@H]1O)OC[C@H]1OC(n2cc(C)c(=O)[nH]c2=O)C[C@@H]1N=[N+]=[N-] (some centres not stated) .
Response given: 73

Challenge: I would be grateful if you could share the reported inhibition for CCCCCCCCCCCCCCCCOP(=O)(OC[C@H]1OC(O)[C@@H](O)[C@@H](O)[C@@H]1O)OC[C@H]1OC(n2cc(C)c(=O)[nH]c2=O)C[C@@H]1N=[N+]=[N-] (some centres not stated) .
Response given: 51

Challenge: I would be grateful if you could share the reported inhibition for Cc1cn([C@H]2C[C@H](N=[N+]=[N-])[C@@H](COP(=O)(O)OC[C@H]3OC(O)[C@H](O)[C@@H](O)[C@@H]3O)O2)c(=O)[nH]c1=O (some centres not stated) .
Response given: 36
